Target Entity: CYP2D6 (Homo sapiens, UniProt P10635)
Sequence (P10635 whole entry): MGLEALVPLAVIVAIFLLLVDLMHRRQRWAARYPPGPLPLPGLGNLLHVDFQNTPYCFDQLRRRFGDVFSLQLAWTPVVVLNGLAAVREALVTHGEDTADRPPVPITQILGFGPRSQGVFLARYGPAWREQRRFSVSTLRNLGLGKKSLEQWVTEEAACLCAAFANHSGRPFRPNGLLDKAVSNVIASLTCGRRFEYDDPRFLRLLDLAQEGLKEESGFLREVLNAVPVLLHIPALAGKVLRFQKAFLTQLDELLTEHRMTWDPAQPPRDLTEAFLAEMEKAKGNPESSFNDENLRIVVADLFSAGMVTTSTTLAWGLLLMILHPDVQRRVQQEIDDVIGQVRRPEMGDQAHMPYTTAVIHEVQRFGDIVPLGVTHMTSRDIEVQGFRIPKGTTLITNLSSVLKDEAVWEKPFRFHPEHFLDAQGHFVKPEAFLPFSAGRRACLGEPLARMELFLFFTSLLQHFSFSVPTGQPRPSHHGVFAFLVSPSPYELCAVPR
Run Description: Inhibition of CYP2D6 in human liver microsomes assessed as remaining activity at 10 uM using dextromethorphan as substrate preincubated for 5 mins followed by addition of NADPH regenerating system and measured after 15 mins by LC-MS/MS analysis relative to control
Format: ADME
Experimental Conditions: probe dextromethorphan, read-out: Activity
Endpoint: activity at 0.25 h, 10 µM (%)

>>> measured_value("CN(c1ncnc2[nH]ccc12)[C@H]1CN(C(=O)CC#N)CC12CC2")
91.6
>>> measured_value("CN(c1ncnc2[nH]ccc12)[C@H]1CN(S(=O)(=O)c2cccc(C#N)c2)CC12CC2")
90.3

----------
Run Description: Protein binding in human plasma at 10 uM after 4 hrs by rapid equilibrium dialysis method
Type: ADME, cell-free
Experimental Conditions: read-out: PPB (converted)
Endpoint: fraction unbound at 4 h, 10 µM

>>> measured_value("CN(c1ncnc2[nH]ccc12)[C@H]1CN(C(=O)CC#N)CC12CC2")
0.702

I = CN(c1ncnc2[nH]ccc12)[C@H]1CN(S(=O)(=O)c2cccc(C#N)c2)CC12CC2
II = CCS(=O)(=O)N1C[C@H](N(C)c2ncnc3[nH]ccc23)C2(CC2)C1
Incoming: Returns the identifier with the smallest measured fraction unbound at 4 h, 10 µM among I and II . Return value: the label identifying the chosen record.
Outgoing: I
(I: 0.126, II: 0.556)

----------
Run Description: MRT in Sprague-Dawley rat at 5 mg/kg, iv after 0.08 to 24 hrs by LC-MS/MS method
Format: ADME, organism-based
Experimental Conditions: in vivo
Endpoint: MRT (h)

>>> measured_value("CN(c1ncnc2[nH]ccc12)[C@H]1CN(C(=O)CC#N)CC12CC2")
1.1
>>> measured_value("CN(c1ncnc2[nH]ccc12)[C@H]1CN(C(=O)CC#N)CC12CC2.O=C(O)CC(O)(CC(=O)O)C(=O)O")
1.2
>>> measured_value("CN(c1ncnc2[nH]ccc12)[C@H]1CN(C(=O)CC#N)CC12CC2.Cl")
0.7
>>> measured_value("CN(c1ncnc2[nH]ccc12)[C@H]1CN(C(=O)CC#N)CC12CC2.O=C(O)C(O)C(O)C(=O)O")
0.9

----------
# remaining at 2 h, 10 µM per entry
Run Description: Metabolic stability in rat plasma assessed as parent compound remaining at 10 uM after 120 mins by LC-MS/MS method
Format: ADME, cell-free
Experimental Conditions: read-out: Stability

>>> measured_value("CN(c1ncnc2[nH]ccc12)[C@H]1CN(S(=O)(=O)c2cccc(C#N)c2)CC12CC2")
"> 100%"
>>> measured_value("CN(c1ncnc2[nH]ccc12)[C@H]1CN(C(=O)CC#N)CC12CC2")
"89.6%"

Now let's try a different one.
Incoming: Output remaining at 2 h, 10 µM of CCS(=O)(=O)N1C[C@H](N(C)c2ncnc3[nH]ccc23)C2(CC2)C1
Outgoing: > 100%

----------
Tested on: Rattus norvegicus
Run Description: AUC (0 to infinity) in Sprague-Dawley rat at 5 mg/kg, iv after 0.08 to 24 hrs by LC-MS/MS method
Type: ADME, organism-based
Set-up: dose 5 mg/kg, time infinity, route intravenous
Experimental Conditions: in vivo
Endpoint: AUC (ng·h/mL)

>>> measured_value("CN(c1ncnc2[nH]ccc12)[C@H]1CN(C(=O)CC#N)CC12CC2.Cl")
1900

A = CN(c1ncnc2[nH]ccc12)[C@H]1CN(C(=O)CC#N)CC12CC2.O=C(O)C(O)C(O)C(=O)O
B = CN(c1ncnc2[nH]ccc12)[C@H]1CN(C(=O)CC#N)CC12CC2
C = CN(c1ncnc2[nH]ccc12)[C@H]1CN(C(=O)CC#N)CC12CC2.O=C(O)CC(O)(CC(=O)O)C(=O)O
Incoming: Order by AUC, ascending. Ranked list of labels, please, in the requested order.
Outgoing: B, A, C
(B: 920 ng·h/mL, A: 1400 ng·h/mL, C: 2000 ng·h/mL)

----------
Run Description: Metabolic stability in rat plasma assessed as parent compound remaining at 10 uM after 30 mins by LC-MS/MS method
Format: ADME, cell-free
Experimental Conditions: read-out: Stability
Endpoint: remaining at 0.5 h, 10 µM

Before answering, review these 2 worked examples.
>>> measured_value("CN(c1ncnc2[nH]ccc12)[C@H]1CN(C(=O)CC#N)CC12CC2")
"98.4%"
>>> measured_value("CCS(=O)(=O)N1C[C@H](N(C)c2ncnc3[nH]ccc23)C2(CC2)C1")
"> 100%"

Now turn to the next compound.
Incoming: Find the measured remaining at 0.5 h, 10 µM of CN(c1ncnc2[nH]ccc12)[C@H]1CN(S(=O)(=O)c2cccc(C#N)c2)CC12CC2 and report it.
Outgoing: > 100%

----------
Run Description: Half life in Sprague-Dawley rat at 5 mg/kg, iv after 0.08 to 24 hrs by LC-MS/MS method
Assay type: ADME, organism-based
Experimental Conditions: in vivo
Endpoint: half-life (h)

Observe how each entry below is paired with its result.
>>> measured_value("CN(c1ncnc2[nH]ccc12)[C@H]1CN(C(=O)CC#N)CC12CC2")
1.2
>>> measured_value("CN(c1ncnc2[nH]ccc12)[C@H]1CN(C(=O)CC#N)CC12CC2.O=C(O)CC(O)(CC(=O)O)C(=O)O")
4.3

A = CN(c1ncnc2[nH]ccc12)[C@H]1CN(C(=O)CC#N)CC12CC2.O=C(O)C(O)C(O)C(=O)O
B = CN(c1ncnc2[nH]ccc12)[C@H]1CN(C(=O)CC#N)CC12CC2.Cl
Incoming: Of A versus B , which is the one with smaller reported half-life? // caller expects the label of the chosen entry
Outgoing: B

----------
UniProt:O60674 IC50 data
Sequence (O60674 whole entry): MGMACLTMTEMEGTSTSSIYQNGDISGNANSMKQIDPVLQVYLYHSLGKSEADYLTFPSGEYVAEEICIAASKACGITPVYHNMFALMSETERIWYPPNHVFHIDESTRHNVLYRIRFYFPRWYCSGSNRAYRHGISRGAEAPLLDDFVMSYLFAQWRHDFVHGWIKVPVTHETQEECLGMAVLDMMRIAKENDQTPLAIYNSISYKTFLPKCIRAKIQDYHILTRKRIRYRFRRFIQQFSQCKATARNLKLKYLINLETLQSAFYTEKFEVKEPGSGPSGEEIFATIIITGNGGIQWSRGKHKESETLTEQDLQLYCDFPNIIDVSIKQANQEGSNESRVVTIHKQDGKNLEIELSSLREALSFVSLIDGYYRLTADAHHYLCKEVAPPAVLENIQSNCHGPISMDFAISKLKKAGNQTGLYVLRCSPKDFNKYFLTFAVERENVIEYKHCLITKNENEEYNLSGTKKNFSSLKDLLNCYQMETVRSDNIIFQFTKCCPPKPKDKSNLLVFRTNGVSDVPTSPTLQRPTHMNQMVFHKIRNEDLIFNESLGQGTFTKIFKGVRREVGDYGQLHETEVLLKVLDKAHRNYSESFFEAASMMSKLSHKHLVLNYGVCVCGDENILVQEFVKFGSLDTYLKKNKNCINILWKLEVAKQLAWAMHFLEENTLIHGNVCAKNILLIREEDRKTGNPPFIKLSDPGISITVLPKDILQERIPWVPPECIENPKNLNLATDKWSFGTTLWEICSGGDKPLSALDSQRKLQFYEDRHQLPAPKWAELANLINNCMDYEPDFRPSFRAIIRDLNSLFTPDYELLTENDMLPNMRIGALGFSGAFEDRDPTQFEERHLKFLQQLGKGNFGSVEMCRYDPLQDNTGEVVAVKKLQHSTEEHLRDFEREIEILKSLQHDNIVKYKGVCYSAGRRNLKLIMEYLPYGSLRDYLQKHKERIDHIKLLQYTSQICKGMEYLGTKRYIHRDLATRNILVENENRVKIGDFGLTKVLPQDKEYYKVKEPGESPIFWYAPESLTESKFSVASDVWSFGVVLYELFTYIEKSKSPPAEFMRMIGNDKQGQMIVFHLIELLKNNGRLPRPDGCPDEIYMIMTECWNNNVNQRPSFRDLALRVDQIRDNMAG
Endpoint: IC50 (nM)

>>> measured_value("CN(c1ncnc2[nH]ccc12)[C@H]1CN(C(=O)c2ccco2)CC12CC2")
930

P = CN(c1ncnc2[nH]ccc12)[C@H]1CN(S(=O)(=O)c2ccc3ccccc3c2)CC12CC2
Q = CN(c1ncnc2[nH]ccc12)[C@H]1CN(C(=O)Nc2ccc(F)cc2)CC12CC2
Incoming: Given the two records P and Q , choose the one whose IC50 value is lower. Your answer should be the label attached to the chosen record.
Outgoing: P

A = CN(c1ncnc2[nH]ccc12)[C@H]1CN(S(=O)(=O)c2ccc(C(F)(F)F)cc2)CC12CC2
B = CC(=O)NCC(=O)N1C[C@H](N(C)c2ncnc3[nH]ccc23)C2(CC2)C1
C = CN(c1ncnc2[nH]ccc12)[C@H]1CN(C(=S)Nc2cc(C(F)(F)F)cc(C(F)(F)F)c2)CC12CC2
Incoming: Sort entries by IC50 from minimum to maximum value. Use the labels to give the ranking in the order requested.
Outgoing: A, C, B

----------
Run Description: Metabolic stability in mouse liver microsomes assessed as parent compound remaining at 1 uM preincubated for 5 mins followed by addition of NADPH regenerating system and measured after 30 mins by LC-MS/MS method
Format: ADME, microsome
Experimental Conditions: read-out: Stability
Endpoint: remaining at 0.5 h, 1 µM (%)

1 = CN(c1ncnc2[nH]ccc12)[C@H]1CN(C(=O)CC#N)CC12CC2
2 = CN(c1ncnc2[nH]ccc12)[C@H]1CN(S(=O)(=O)c2cccc(C#N)c2)CC12CC2
3 = CCS(=O)(=O)N1C[C@H](N(C)c2ncnc3[nH]ccc23)C2(CC2)C1
Incoming: Ranking request: remaining at 0.5 h, 1 µM, max to min, items above. List the labels, following the order given in the request.
Outgoing: 1, 3, 2
(1: 84.9%, 3: 33.9%, 2: 3.2%)

----------
Species: Homo sapiens
Run Description: Selectivity index, ratio of IC50 for human JAK2 to IC50 for human JAK1
Endpoint: Ratio IC50

These recorded examples may help you get a feel for the data.
>>> measured_value("CN(c1ncnc2[nH]ccc12)[C@H]1CN(S(=O)(=O)c2ccc3ccccc3c2)CC12CC2")
8.8
>>> measured_value("CN(c1ncnc2[nH]ccc12)[C@H]1CN(C(=O)c2cccc(C(F)(F)F)c2)CC12CC2")
26
>>> measured_value("CCCS(=O)(=O)N1C[C@H](N(C)c2ncnc3[nH]ccc23)C2(CC2)C1")
5.2

P = CN(c1ncnc2[nH]ccc12)[C@H]1CN(S(=O)(=O)c2ccc(C#N)cc2)CC12CC2
Q = CC(C)C(=O)N1C[C@H](N(C)c2ncnc3[nH]ccc23)C2(CC2)C1
Incoming: Identify the entry with the larger Ratio IC50. Options: P and Q Answer by quoting the chosen item's label.
Outgoing: P
(P: 110, Q: 16)

----------
Run Description: Half life in Sprague-Dawley rat at 10 mg/kg, po after 0.25 to 24 hrs by LC-MS/MS method
Type: ADME, organism-based
Experimental Conditions: in vivo
Endpoint: half-life (h)

>>> measured_value("CN(c1ncnc2[nH]ccc12)[C@H]1CN(C(=O)CC#N)CC12CC2.Cl")
1.1

1 = CN(c1ncnc2[nH]ccc12)[C@H]1CN(C(=O)CC#N)CC12CC2.O=C(O)CC(O)(CC(=O)O)C(=O)O
2 = CN(c1ncnc2[nH]ccc12)[C@H]1CN(C(=O)CC#N)CC12CC2
3 = CN(c1ncnc2[nH]ccc12)[C@H]1CN(C(=O)CC#N)CC12CC2.O=C(O)C(O)C(O)C(=O)O
Incoming: Returns the items ordered by half-life, from maximum to minimum. Reply: labels, ordered per the request.
Outgoing: 1, 2, 3
(1: 3.6 h, 2: 2.1 h, 3: 1 h)

The origin of these recorded values is ChEMBL document CHEMBL4257478.
